- system tested: human TRPV4 (Homo sapiens)
- Construct: host or cells: tetracycline-inducible Flp-In T-REx 293 cells
- Sequence (Q9HBA0 whole entry): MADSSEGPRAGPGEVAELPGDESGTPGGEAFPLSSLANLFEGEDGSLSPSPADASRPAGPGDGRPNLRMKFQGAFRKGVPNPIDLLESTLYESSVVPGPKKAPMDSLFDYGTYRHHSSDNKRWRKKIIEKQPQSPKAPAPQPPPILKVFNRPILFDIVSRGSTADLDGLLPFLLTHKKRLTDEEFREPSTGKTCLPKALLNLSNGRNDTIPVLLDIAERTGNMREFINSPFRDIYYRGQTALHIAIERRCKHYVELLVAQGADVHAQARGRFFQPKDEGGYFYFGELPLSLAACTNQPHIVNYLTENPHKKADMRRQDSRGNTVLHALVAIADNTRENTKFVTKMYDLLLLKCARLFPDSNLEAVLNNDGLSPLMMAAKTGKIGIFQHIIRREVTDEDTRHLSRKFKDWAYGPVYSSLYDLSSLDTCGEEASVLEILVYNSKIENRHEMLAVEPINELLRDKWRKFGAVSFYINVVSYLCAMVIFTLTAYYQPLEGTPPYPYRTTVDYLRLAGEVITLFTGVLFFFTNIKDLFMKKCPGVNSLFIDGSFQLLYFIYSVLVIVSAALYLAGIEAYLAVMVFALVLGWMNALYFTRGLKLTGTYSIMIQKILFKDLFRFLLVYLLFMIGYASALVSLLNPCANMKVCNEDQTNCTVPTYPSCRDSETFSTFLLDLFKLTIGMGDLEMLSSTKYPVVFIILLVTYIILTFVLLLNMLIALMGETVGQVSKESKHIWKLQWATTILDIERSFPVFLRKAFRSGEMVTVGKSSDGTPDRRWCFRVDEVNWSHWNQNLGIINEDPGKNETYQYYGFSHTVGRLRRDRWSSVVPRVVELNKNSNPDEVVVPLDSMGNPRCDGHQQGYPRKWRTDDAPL
- test details: Hypotonicity-induced Ca2+ influx (Fluo-4, FDSS)
- Assay type: cell-based
- experimental setup: Flp-In T-REx 293 cells stably expressing human TRPV4, compounds listed by potency bin (<10 nM Tables 96-1/96-2, <3 nM Table 97)
endpoint: IC50

Which IC50 reading was recorded for the compound `O=C([C@H](O)c1cccc(-c2cccc(C(F)(F)F)n2)c1)N1CCc2nc(C3(c4cccc(Cl)c4)CC3)[nH]c(=O)c2C1` ? < 3 nM

Which IC50 reading was recorded for the compound `O=C([C@H](O)c1cccc(-c2cc(F)cc(Cl)c2)c1)N1CCCc2nc(C3(c4cccc(-c5csc6ccccc56)c4)CC3)[nH]c(=O)c2C1` ? < 10 nM

Which IC50 reading was recorded for the compound `O=C([C@H](O)c1cccc(-c2cccc(C3CC3)c2)c1)N1CCCc2nc(C3(c4cccc(Cl)c4)CC3)[nH]c(=O)c2C1` ? < 10 nM

Which IC50 reading was recorded for the compound `O=C([C@H](O)c1cccc(-c2cccc(Cl)c2)c1)N1CCCc2nc(C3(c4cccc(C5CCCCC5)c4)CC3)[nH]c(=O)c2C1` ? < 3 nM

Which IC50 reading was recorded for the compound `O=C([C@H](O)c1cccc(C(F)(F)F)c1)N1CCCc2nc(C3(c4cc(CCC5CC5)cs4)CC3)[nH]c(=O)c2C1` ? < 10 nM

Which IC50 reading was recorded for the compound CC(C)c1csc(C2(c3nc4c(c(=O)[nH]3)CN(C(=O)C(O)c3cccc(-c5cccc(C(F)(F)F)c5)c3)CCC4)CC2)c1 (centres unmarked) ? < 10 nM

Which IC50 reading was recorded for the compound `N#Cc1cc(Cl)cc(-c2cccc([C@@H](O)C(=O)N3CCCc4nc(C5(c6ccccc6)CC5)[nH]c(=O)c4C3)c2)c1` ? < 3 nM

Which IC50 reading was recorded for the compound O=C(C(O)c1cccc(C(F)(F)F)c1F)N1CCCc2nc(C3(c4cccc(Cl)c4)CC3)[nH]c(=O)c2C1 (centres unmarked) ? < 3 nM

Which IC50 reading was recorded for the compound O=C([C@H](O)c1cccc(C(F)(F)F)c1)N1CCCc2nc(C3(c4cccc(C5=CCC(C(F)(F)F)CC5)c4)CC3)[nH]c(=O)c2C1 (some centres unmarked) ? < 10 nM

Which IC50 reading was recorded for the compound `O=C([C@H](O)c1cccc(-c2ccc(Cl)cc2)c1)N1CCCc2nc(C3(c4cccc(Cl)c4)CC3)[nH]c(=O)c2C1` ? < 3 nM

Which IC50 reading was recorded for the compound `CC(C)c1csc(C2(c3nc4c(c(=O)[nH]3)CN(C(=O)Cc3cccc(-c5cccc(C(F)(F)F)c5)c3)CCC4)CC2)c1` ? < 10 nM

Which IC50 reading was recorded for the compound `O=C([C@H](O)c1cccc(C(F)(F)F)c1)N1CCCc2nc(C3(c4cccc(C5CCCCC5)c4)CC3)[nH]c(=O)c2C1` ? < 10 nM

Which IC50 reading was recorded for the compound `O=C(N1CCCc2nc(C3(c4cccc(F)c4)CC3)[nH]c(=O)c2C1)C(F)(F)c1cccc(C(F)(F)F)c1` ? < 3 nM

Which IC50 reading was recorded for the compound `O=C([C@H](O)c1cccc(C(F)(F)F)c1)N1CCc2nc(C3(c4cc(-c5ccccc5)cs4)CC3)[nH]c(=O)c2C1` ? < 10 nM
